// data source = PubChem BioAssay (NCI)

# TGI annotations
System: T-47D breast
Assay: NCI tumour cell line growth inhibition, 48 h

{"columns": ["compound", "TGI"],
 "data": [
  ["CCOC(=O)c1cnc2c(C)cc(C)cc2c1NCCCN(C)C", "29.4 µM"],
  ["COc1ccc(CN(Cc2ccc(OC)cc2)C(=O)CC2(O)CCc3ccccc3C2)cc1 (stereo not given)", "> 100 µM"],
  ["O=S(=O)(O)c1ccc(-c2c3nc(c(-c4ccc(S(=O)(=O)O)cc4)c4ccc([nH]4)c(-c4ccc(S(=O)(=O)O)cc4)c4nc(c(-c5ccc(S(=O)(=O)O)cc5)c5ccc2[nH]5)C=C4)C=C3)cc1", "> 100 µM"],
  ["CCN(CC)c1ccc(/C=C/C2=NN(c3cccc(S(=O)(=O)O)c3)C3(C2)SCC(=O)N3c2nc3ccccc3s2)cc1 (stereo not given)", "53.9 µM"],
  ["CSc1ccc(NC(=O)C2CCCCC2C(=O)O)cc1 (stereo not given)", "> 100 µM"]
]}

Incoming: Given the compound Cn1c(CCC2(C)Cc3ccccc3C(=O)O2)cc2ccccc2c1=O (stereo not given) , what is its reported TGI?
Outgoing: 83.3 µM

Incoming: Which measured TGI value corresponds to `CCc1nc(N)c2nc(-c3ccc(C#N)cc3)oc2n1` ?
Outgoing: > 100 µM

Incoming: Bench note: what TGI did COc1ccc(-c2nc(S(=O)(=O)c3ccccc3)c(S(=O)CC(=O)N3CCC(C)CC3)o2)cc1 (stereo not given) show?
Outgoing: 4.09 µM

Incoming: Could you share which TGI value was measured for `COP(=O)(OC)/C(=C\C1=CN(C(c2ccccc2)(c2ccccc2)c2ccccc2)CN1)NC=O` ?
Outgoing: 49.2 µM

Incoming: Which TGI value belongs to `COc1cccc(CNCCN2C(=O)c3ccc4c5c(ccc(c35)C2=O)C(=O)N(CCNCc2cccc(OC)c2)C4=O)c1` ?
Outgoing: 5.3 µM

Incoming: For the compound `S=C(NCCc1ccccn1)c1nc[nH]c1C(=S)NCCc1ccccn1` , what TGI is on record?
Outgoing: 60.6 µM

###

Catalogue of TGI values
Tested on: A549 NSCLC
Assay: NCI tumour cell line growth inhibition, 48 h

Solved cases below.
{"columns": ["molecule", "assay-system", "TGI"],
 "data": [
  ["COc1ccc(C(=O)N2N=C(c3ccc(Br)cc3)CC2c2cn(-c3ccccc3)nc2-c2ccccc2)cc1 (stereo unspecified)", "A549 NSCLC", "> 50 µM"],
  ["C[n+]1c2ccccc2c2/c(=C\\C#N)c3ccccc3n21", "A549 NSCLC", "32.9 µM"],
  ["CC(C)c1ccccc1NC(=O)CCC(=O)NN", "A549 NSCLC", "> 100 µM"],
  ["CCOC(=O)c1sc2c(sc(=O)n2-c2ccccc2)c1O", "A549 NSCLC", "> 100 µM"],
  ["c1ccc(CNc2ccc3[nH]c4cnccc4c3c2)cc1", "A549 NSCLC", "34.7 µM"]
]}

Incoming: For `CN1CCCN(C)CCCN(C)CCCN(C)CCC1` , what is its reported TGI?
Outgoing: > 100 µM

Incoming: TGI lookup needed for COc1ccc(-c2nc(S(=O)(=O)c3ccccc3)c(S(=O)CC(=O)N3CCC(C)CC3)o2)cc1 (stereo unspecified) , thanks.
Outgoing: 21.1 µM

Incoming: Given the entry CSc1ccc(NC(=O)C2CCCCC2C(=O)O)cc1 (stereo unspecified) , report its measured TGI.
Outgoing: > 100 µM

Incoming: Which measured TGI value corresponds to C/C=C/C1(C)/C(=N\O)C(C)(CCC)C(=O)N1O (stereo unspecified) ?
Outgoing: > 100 µM

Incoming: What value of TGI has been reported for the following molecule? `CCOC(=O)COc1ccc(OC)c2c1C(=O)CCC2`
Outgoing: > 100 µM

Incoming: Consider the molecule shown here: `Fc1cc(-c2csc3n[nH]c(=S)n23)c(Cl)cc1Cl` What is its recorded TGI?
Outgoing: > 100 µM
